These measurements were taken from a melting point compilation (Tetko et al.; mined from patent text by program, amines drawn as free bases though some values may be those of a salt).

Record form. Attribute: melting point. Fill in for each entry.

Consider the worked cases shown below.
[
  {
    "molecule": "C=Cc1ccc(-c2ccc(OC(C)=O)cc2)cc1",
    "experimental result": "119 to 122 °C"
  },
  {
    "molecule": "O=C1NCCc2ccc(OCCCCN3CCC(c4cccc(Cl)c4Cl)CC3)cc21",
    "experimental result": "113 to 114 °C"
  },
  {
    "molecule": "C#Cc1ccc(C(=O)OC(C)(C)C)cc1",
    "experimental result": "71.5 to 72 °C"
  },
  {
    "molecule": "Cc1ccc(-n2nc3c(cc2=O)CCCc2sc(CO)cc2-3)cc1",
    "experimental result": "158 to 159 °C"
  },
  {
    "molecule": "Cc1nc2c3c(c(CO)cc2n1C)CCC(c1ccccc1)N3 (stereo not given)",
    "experimental result": "253 to 254 °C"
  }
]

Report melting point for every entry below.
1. NS(=O)(=O)c1cccc(-c2noc(-c3cnn4c(C(F)(F)F)cc(-c5ccc(Cl)cc5)nc34)n2)c1
2. CCCSc1sc(C(=O)N2CCCC2)c2c1C(=O)CC(C)(C)C2

1. 247 °C
2. 117 to 119 °C
